TARGET UNDER TEST: ER in MCF-7 cells (Homo sapiens (Human))
PROCEDURE DETAILS: In-cell western (ICW) ER degradation assay in MCF-7 cells (Compounds A1-A70)
Assay type: cell-based
TEST SETTINGS: ER degradation, MCF-7 cells, 16 hrs treatment, 0.02 to 300 nM; read-out: MCF7 ICW DC50
Procedure: ERa degradative activity of compounds can be assessed in MCF-7 and T47D Cells. MCF-7 and T47D cell are seeded and are subsequently treated with the compounds at certain concentrations (e.g., 0.02 to 300 nM). DMSO can be used as vehicle control. Cells are fixed and are blocked with Intercept (PBS) Blocking Buffer (e.g., Li—COR, Odyssey Blocking Buffer), and are stained with ER (e.g., 1:500, Cell signaling) primary antibody for overnight at cold room. […]
Below, each entry is listed with its recorded DC50.

COMPOUND | DC50
C[C@@H]1Cc2c([nH]c3ccccc23)[C@@H](c2cnc(N3CCC(CN4CCN5c6ccc7c(c6OC[C@@H]5C4)CN(C4CCC(=O)NC4=O)C7=O)CC3)nc2)N1CC(F)F (stereo partly shown) | 1 to 10 nM
C[C@@H]1Cc2c([nH]c3ccccc23)[C@@H](c2cnc([C@H]3CC[C@H](C(=O)N4CCC(N5Cc6cc7c(cc6C5)C(=O)N(C5CCC(=O)NC5=O)C7)CC4)CC3)nc2)N1CC(F)F (stereo partly shown) | 10 to 100 nM
C[C@H]1Cc2c([nH]c3ccccc23)[C@H](c2ccc(N3CCC(CN4CCN5c6ccc7c(c6OC[C@@H]5C4)CN([C@@H]4CCC(=O)NC4=O)C7=O)CC3)cn2)N1CC(F)(F)F | 10 to 100 nM
C[C@@H]1Cc2c([nH]c3ccccc23)[C@@H](c2cnc(N3CCC4(CC3)C[C@@H](CN3CCN5c6ccc(C(=O)N[C@H]7CCC(=O)NC7=O)nc6OC[C@H]5C3)CO4)nc2)N1CC(F)F | 1 to 10 nM
COc1cc(N2CCC(CN3CCN4c5cc6c(cc5OC[C@@H]4C3)C(=O)N([C@H]3CCC(=O)NC3=O)C6)CC2)ccc1[C@@H]1c2[nH]c3ccccc3c2C[C@@H](C)N1CC(F)F [Compound A28] | < 1 nM
COc1cc(N2CCC(CN3CCN(c4ccc(C(=O)N[C@H]5CCC(=O)NC5=O)nc4)CC3)CC2)ccc1[C@@H]1c2[nH]c3ccccc3c2C[C@@H](C)N1CC(F)F [Compound A55] | < 1 nM
COc1cc(N2CCC(CN3CCN(c4ccc(NC5CCC(=O)NC5=O)cc4F)CC3)CC2)ccc1[C@@H]1c2[nH]c3ccccc3c2C[C@@H](C)N1CC(F)F (stereo partly shown) | < 1 nM
C[C@@H]1Cc2c([nH]c3ccccc23)[C@@H](c2cnc(N3CCC4(CC3)CC(CN3CCC(c5ccc6c(c5)n(C)c(=O)n6C5CCC(=O)NC5=O)CC3)C4)nc2)N1CC(F)F (stereo partly shown) | < 1 nM
C[C@H]1Cc2c([nH]c3ccccc23)[C@H](c2ccc(N3CCC(CN4CCN5c6cc7c(cc6OC[C@H]5C4)C(=O)N([C@@H]4CCC(=O)NC4=O)C7)CC3)cn2)N1CC(F)(F)F | > 100 nM
COc1cc(N2CCC(CN3CCN4c5ccc6c(c5OC[C@H]4C3)CN([C@H]3CCC(=O)NC3=O)C6=O)CC2)ccc1[C@H]1c2[nH]c3ccccc3c2C[C@@H](C)N1CC(F)F | < 1 nM

====

Below, each entry is listed with its recorded DC50.
TARGET UNDER TEST: ER in T47D cells (Homo sapiens (Human), UniProt P03372)
Sequence (P03372 whole entry): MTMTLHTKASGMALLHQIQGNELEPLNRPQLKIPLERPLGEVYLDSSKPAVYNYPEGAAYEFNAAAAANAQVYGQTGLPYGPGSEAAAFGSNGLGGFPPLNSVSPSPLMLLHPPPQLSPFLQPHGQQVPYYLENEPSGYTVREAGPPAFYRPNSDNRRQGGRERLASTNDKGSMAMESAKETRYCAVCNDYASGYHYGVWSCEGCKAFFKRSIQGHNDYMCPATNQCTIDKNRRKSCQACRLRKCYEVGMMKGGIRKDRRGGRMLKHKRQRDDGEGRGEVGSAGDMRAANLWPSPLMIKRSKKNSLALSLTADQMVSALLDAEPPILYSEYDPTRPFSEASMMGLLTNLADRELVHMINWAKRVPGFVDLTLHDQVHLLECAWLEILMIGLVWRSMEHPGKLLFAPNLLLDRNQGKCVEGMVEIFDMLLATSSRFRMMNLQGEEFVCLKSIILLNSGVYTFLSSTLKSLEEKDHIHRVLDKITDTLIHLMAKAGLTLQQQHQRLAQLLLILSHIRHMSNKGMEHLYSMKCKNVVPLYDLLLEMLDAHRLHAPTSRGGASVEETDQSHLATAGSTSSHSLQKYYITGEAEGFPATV
PROCEDURE DETAILS: In-cell western (ICW) ER degradation assay in T47D cells (Compounds A1-A70)
Assay type: cell-based
TEST SETTINGS: ER degradation, T47D cells, 16 hrs treatment, 0.02 to 300 nM
Protocol: ERa degradative activity of compounds can be assessed in MCF-7 and T47D Cells. MCF-7 and T47D cell are seeded and are subsequently treated with the compounds at certain concentrations (e.g., 0.02 to 300 nM). DMSO can be used as vehicle control. Cells are fixed and are blocked with Intercept (PBS) Blocking Buffer (e.g., Li—COR, Odyssey Blocking Buffer), and are stained with ER (e.g., 1:500, Cell signaling) primary antibody for overnight at cold room. […]

MOLECULE | DC50
COc1cc(N2CCC(CN3CCN4c5ccc6c(c5OC[C@H]4C3)CN([C@@H]3CCC(=O)NC3=O)C6=O)CC2)ccc1[C@@H]1c2[nH]c3ccccc3c2C[C@@H](C)N1CC(F)F [Compound A37] | < 1 nM
C[C@@H]1Cc2c([nH]c3ccccc23)[C@@H](c2cnc([C@H]3CC[C@H](C(=O)N4CCC(N5Cc6cc7c(cc6C5)C(=O)N(C5CCC(=O)NC5=O)C7)CC4)CC3)nc2)N1CC(F)F (stereo partly shown) [Compound A25] | < 1 nM
COc1cc(N2CCC(CN3CCN4c5cc6c(cc5OC[C@@H]4C3)C(=O)N([C@@H]3CCC(=O)NC3=O)C6)CC2)ccc1[C@H]1c2[nH]c3ccccc3c2C[C@H](C)N1CC(F)F [Compound A44] | < 1 nM
COc1cc(N2CCC(CN3CCN(c4ccc(NC5CCC(=O)NC5=O)cc4F)CC3)CC2)ccc1[C@@H]1c2[nH]c3ccccc3c2C[C@@H](C)N1CC(F)F (stereo partly shown) [Compound A31] | 1 to 10 nM
C[C@H]1Cc2c([nH]c3ccccc23)[C@H](c2cnc(N3CCC4(CC3)C[C@H](CN3CCN5c6cc7c(cc6OC[C@H]5C3)C(=O)N([C@@H]3CCC(=O)NC3=O)C7)CO4)nc2)N1CC(F)F [Compound A60] | < 1 nM
COc1cc(N2CCC(CN3CCC(c4ccc(N[C@H]5CCC(=O)NC5=O)cc4F)CC3)CC2)ccc1[C@@H]1c2[nH]c3ccccc3c2C[C@@H](C)N1CC(F)F [Compound A34] | < 1 nM
C[C@@H]1Cc2c([nH]c3ccccc23)[C@@H](c2ccc(N3CCC(CN4CCN5c6ccc7c(c6OC[C@@H]5C4)CN([C@H]4CCC(=O)NC4=O)C7=O)CC3)nc2)N1CC(F)F [Compound A23] | 1 to 10 nM
COc1cc(N2CCC(CN3CCN(c4ccc(C(=O)NC5CCC(=O)NC5=O)nc4OC)CC3)CC2)ccc1[C@@H]1c2[nH]c3ccccc3c2C[C@@H](C)N1CC(F)F (stereo partly shown) [Compound A52] | 1 to 10 nM
C[C@H]1Cc2c([nH]c3ccccc23)[C@H](c2cnc(N3CCC4(CC3)C[C@H](CN3CCN5c6ccc7c(c6OC[C@@H]5C3)CN([C@@H]3CCC(=O)NC3=O)C7=O)CO4)nc2)N1CC(F)F [Compound A58] | < 1 nM
C[C@@H]1Cc2c([nH]c3ccccc23)[C@@H](c2cnc(N3CCC4(CC3)C[C@@H](CN3CCC(c5ccc(N[C@@H]6CCC(=O)NC6=O)cc5)CC3)CO4)nc2)N1CC(F)F [Compound A70] | < 1 nM

====

Below, each entry is listed with its recorded IC50.
TARGET UNDER TEST: CRBN/DDB1 (Homo sapiens (Human), UniProt Q96SW2)
Sequence (Q96SW2 whole entry): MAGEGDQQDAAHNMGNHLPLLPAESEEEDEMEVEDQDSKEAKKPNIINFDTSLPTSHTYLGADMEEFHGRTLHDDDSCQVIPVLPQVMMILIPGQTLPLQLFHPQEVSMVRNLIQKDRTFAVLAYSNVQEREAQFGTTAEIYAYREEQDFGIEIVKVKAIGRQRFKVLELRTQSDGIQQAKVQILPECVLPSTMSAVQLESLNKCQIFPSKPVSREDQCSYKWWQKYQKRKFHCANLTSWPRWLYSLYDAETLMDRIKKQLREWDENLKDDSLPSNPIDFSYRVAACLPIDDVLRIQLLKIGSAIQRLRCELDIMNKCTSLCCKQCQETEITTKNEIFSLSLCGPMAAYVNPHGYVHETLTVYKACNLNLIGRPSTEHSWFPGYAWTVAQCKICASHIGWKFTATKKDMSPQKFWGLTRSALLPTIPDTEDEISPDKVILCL
Sequence (Q16531 whole entry partner): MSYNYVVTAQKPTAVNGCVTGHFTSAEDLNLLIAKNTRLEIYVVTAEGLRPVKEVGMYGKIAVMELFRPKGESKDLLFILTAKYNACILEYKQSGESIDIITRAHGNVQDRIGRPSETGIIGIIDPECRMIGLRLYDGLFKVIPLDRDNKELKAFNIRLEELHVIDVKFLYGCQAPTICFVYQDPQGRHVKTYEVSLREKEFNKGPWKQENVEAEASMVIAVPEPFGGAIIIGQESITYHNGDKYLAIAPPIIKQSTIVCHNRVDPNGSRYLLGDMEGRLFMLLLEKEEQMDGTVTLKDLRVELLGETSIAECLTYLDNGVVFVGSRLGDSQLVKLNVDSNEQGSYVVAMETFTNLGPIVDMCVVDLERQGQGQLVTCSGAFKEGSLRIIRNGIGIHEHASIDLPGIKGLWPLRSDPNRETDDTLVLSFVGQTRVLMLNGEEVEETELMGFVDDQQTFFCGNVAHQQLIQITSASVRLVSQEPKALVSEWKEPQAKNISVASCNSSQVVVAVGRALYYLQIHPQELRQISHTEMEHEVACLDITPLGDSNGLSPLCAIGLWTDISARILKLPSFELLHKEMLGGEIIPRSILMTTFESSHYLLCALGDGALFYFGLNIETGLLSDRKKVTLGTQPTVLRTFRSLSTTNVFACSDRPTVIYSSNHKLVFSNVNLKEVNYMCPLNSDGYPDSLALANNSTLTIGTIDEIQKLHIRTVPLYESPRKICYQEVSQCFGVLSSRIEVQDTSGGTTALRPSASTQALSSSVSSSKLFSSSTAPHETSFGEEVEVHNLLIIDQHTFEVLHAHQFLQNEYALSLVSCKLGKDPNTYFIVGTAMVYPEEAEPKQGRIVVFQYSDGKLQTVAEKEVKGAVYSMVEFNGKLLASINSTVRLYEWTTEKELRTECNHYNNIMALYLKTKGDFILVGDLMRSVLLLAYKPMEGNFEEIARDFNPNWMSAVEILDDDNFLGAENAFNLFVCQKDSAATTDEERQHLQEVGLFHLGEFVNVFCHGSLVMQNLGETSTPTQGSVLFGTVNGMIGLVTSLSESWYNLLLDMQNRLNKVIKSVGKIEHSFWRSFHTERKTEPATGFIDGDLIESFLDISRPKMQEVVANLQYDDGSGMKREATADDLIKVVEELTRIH
Format: binding
TEST SETTINGS: His tagged CRBN+DDB-DLS7+CXU4, Cy5-labeled Thalidomide probe, one hour incubation; read-out: CRBN HTRF IC50
READOUT TYPE: IC50

COMPOUND | TARGET UNDER TEST | RECORDED VALUE
C[C@@H]1Cc2c([nH]c3ccccc23)[C@@H](c2cnc(N3C[C@@H]4[C@H](CN5CCN6c7cc8c(cc7OC[C@@H]6C5)C(=O)N([C@H]5CCC(=O)NC5=O)C8)[C@@H]4C3)nc2)N1CC(C)(C)F | CRBN/DDB1 (Homo sapiens (Human), UniProt Q96SW2) | 0.05 to 0.5 µM
COc1cc(N2CCC(CN3CCN(c4cnc(C(=O)NC5CCC(=O)NC5=O)cc4OC)CC3)CC2)ccc1[C@@H]1c2[nH]c3ccccc3c2C[C@@H](C)N1CC(F)F (some centres unmarked) | CRBN/DDB1 (Homo sapiens (Human), UniProt Q96SW2) | > 5 µM
C[C@H]1Cc2c([nH]c3ccccc23)[C@H](c2cnc(N3CCC4(CC3)C[C@H](CN3CCN5c6cc7c(cc6OC[C@H]5C3)C(=O)N([C@@H]3CCC(=O)NC3=O)C7)CO4)nc2)N1CC(F)F | CRBN/DDB1 (Homo sapiens (Human), UniProt Q96SW2) | 0.5 to 5 µM
Cc1nn(C2CCC(=O)NC2=O)c2ccc(N3CCN(CC4CC5(CCN(c6ncc([C@@H]7c8[nH]c9ccccc9c8C[C@@H](C)N7CC(C)(C)F)cn6)CC5)C4)CC3)cc12 (some centres unmarked) | CRBN/DDB1 (Homo sapiens (Human), UniProt Q96SW2) | < 0.05 µM
C[C@H]1Cc2c([nH]c3ccccc23)[C@H](c2ccc(N3CCC(CN4CCN5c6cc7c(cc6OC[C@H]5C4)C(=O)N([C@@H]4CCC(=O)NC4=O)C7)CC3)cn2)N1CC(F)(F)F | CRBN/DDB1 (Homo sapiens (Human), UniProt Q96SW2) | 0.5 to 5 µM
